Target: T1, AP2-AA
T1 chain: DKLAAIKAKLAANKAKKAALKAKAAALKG
Experiment: two-hybrid library CCmax;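 also: natural log of median RNA to DNA barcode read ratio; higher means stronger binding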
Settings: mean of both orientations
property: interaction score
Response field accepts a number only; no unit should be typed.

{"columns": ["binder", "experimental result"],
 "data": [
  ["DELAAIEAELAAEEAENAALEAEAAALEG [AP1-AA]", -1.59],
  ["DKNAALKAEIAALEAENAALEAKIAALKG [4H3606-AA]", -1.36],
  ["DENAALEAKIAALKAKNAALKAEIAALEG [4H1401-AA]", -1.98]
]}

// switching to the query binder
Field interaction score (entry ASIRRLEQEVNQERSRMAYLQTLLAKIEQ [4H_BCR] ) reads -2.54
